Task for the reader: assign each of the following molecules its reported Papp B→A at 2 h.
experimental.target: P-glycoprotein (P-gp, ABCB1) (Homo sapiens, UniProt P08183)
Construct: expressed in transfected cells; host or cells: LLC-PK1 (pig kidney) cells transfected with human MDR1 (L-MDR1 cells)
Sequence (P08183 whole entry): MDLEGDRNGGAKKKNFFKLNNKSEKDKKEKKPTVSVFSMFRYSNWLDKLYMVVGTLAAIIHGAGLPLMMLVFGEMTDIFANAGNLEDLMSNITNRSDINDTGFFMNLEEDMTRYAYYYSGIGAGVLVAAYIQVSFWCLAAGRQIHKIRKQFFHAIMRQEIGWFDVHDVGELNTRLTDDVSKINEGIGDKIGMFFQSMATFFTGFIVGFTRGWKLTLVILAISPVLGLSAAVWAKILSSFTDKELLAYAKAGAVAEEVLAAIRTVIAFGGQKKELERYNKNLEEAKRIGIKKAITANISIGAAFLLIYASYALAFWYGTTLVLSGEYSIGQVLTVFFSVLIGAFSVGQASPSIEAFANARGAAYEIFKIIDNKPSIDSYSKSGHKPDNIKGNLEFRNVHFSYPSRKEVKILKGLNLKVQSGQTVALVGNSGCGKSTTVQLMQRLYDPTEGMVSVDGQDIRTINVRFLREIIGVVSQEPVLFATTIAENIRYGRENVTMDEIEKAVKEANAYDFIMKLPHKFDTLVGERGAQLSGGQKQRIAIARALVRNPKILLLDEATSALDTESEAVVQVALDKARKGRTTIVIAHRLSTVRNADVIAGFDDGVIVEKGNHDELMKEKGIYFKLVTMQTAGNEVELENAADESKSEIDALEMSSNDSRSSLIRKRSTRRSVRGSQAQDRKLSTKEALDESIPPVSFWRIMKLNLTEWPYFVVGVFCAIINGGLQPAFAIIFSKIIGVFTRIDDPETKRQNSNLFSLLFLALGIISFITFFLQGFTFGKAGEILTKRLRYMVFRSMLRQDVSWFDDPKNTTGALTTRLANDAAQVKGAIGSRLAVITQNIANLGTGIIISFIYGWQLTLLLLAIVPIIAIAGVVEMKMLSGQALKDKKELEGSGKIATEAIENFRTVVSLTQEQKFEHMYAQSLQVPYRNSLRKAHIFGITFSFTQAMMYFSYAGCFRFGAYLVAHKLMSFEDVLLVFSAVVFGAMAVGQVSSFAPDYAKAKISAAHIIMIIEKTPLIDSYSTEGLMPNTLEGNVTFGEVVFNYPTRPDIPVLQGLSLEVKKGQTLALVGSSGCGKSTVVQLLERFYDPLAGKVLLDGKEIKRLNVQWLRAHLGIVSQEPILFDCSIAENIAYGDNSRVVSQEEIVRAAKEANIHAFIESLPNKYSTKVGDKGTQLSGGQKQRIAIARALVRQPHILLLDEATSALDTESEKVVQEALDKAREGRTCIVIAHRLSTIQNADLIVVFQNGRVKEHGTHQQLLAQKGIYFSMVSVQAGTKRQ
assay.explanation: Flux assay in P-gp overexpressing L-MDR1 cells
Type: in vitro ADME
condition.label: LLC-PK1, basal to apical
Square brackets hold non-standard residues; d marks the D form. Peptide text beside a SMILES is read from it. * marks the point of attachment. X2 = CC(C)[C@@H](C(=O)*)N(C)CCCCCCN1C(=O)CC(SC[C@H](N)C(=O)O)C1=O; X1 = CC(C)[C@@H](C(=O)*)N(C)CCCCCC(=O)NCCCC[C@H](N)C(=O)O; Dolaproine = CO[C@@H]([C@@H]1CCCN1)[C@@H](C)C(=O)O; Dil = CC[C@H](C)[C@H](NC)[C@@H](CC(=O)O)OC
Return type: number; implicit unit ×10⁻⁶ cm/s.

Note to self: Papp B→A at 2 h recorded for CC[C@H](C)[C@@H]([C@@H](CC(=O)N1CCC[C@H]1[C@H](OC)[C@@H](C)C(=O)N[C@@H](Cc1c[nH]c2ccccc12)C(=O)NCc1ccccc1)OC)N(C)C(=O)[C@@H](NC(=O)[C@H](C(C)C)N(C)CCCC(=O)NNC(=O)CCCCCN1C(=O)CC(SC[C@H](N)C(=O)O)C1=O)C(C)C (some centres unmarked) was 0.2

Note to self: Papp B→A at 2 h recorded for CC[C@H](C)[C@@H]([C@@H](CC(=O)N1CCC[C@H]1[C@H](OC)[C@@H](C)C(=O)N[C@@H](Cc1c[nH]c2ccccc12)C(=O)O)OC)N(C)C(=O)[C@@H](NC(=O)[C@H](C(C)C)N(C)CCCCCC(=O)NCCCC[C@H](N)C(=O)O)C(C)C [Example 116] (X1-V[Dil][Dolaproine]W-OH) was 0.4

Note to self: Papp B→A at 2 h recorded for CC[C@H](C)[C@@H]([C@@H](CC(=O)N1CCC[C@H]1[C@H](OC)[C@@H](C)C(=O)N[C@@]1(C(=O)N2CCCCO2)C[C@@H]1c1ccccc1)OC)N(C)C(=O)[C@@H](NC(=O)[C@H](C(C)C)N(C)CCCC(=O)NNC(=O)CCCCCN1C(=O)CC(SC[C@H](N)C(=O)O)C1=O)C(C)C (some centres unmarked) was 0.21

Note to self: Papp B→A at 2 h recorded for CC[C@H](C)[C@@H]([C@@H](CC(=O)N1CCC[C@H]1[C@H](OC)[C@@H](C)C(=O)N[C@@H](Cc1c[nH]c2ccccc12)C(=O)O)OC)N(C)C(=O)[C@@H](NC(=O)[C@H](C(C)C)N(C)CCCC(=O)NNC(=O)CCCCCN1C(=O)CC(SC[C@H](N)C(=O)O)C1=O)C(C)C (some centres unmarked) was 0.36

Note to self: Papp B→A at 2 h recorded for CC[C@H](C)[C@@H]([C@@H](CC(=O)N1CCC[C@H]1[C@H](OC)[C@@H](C)C(=O)N[C@@H](Cc1c[nH]c2ccccc12)C(N)=O)OC)N(C)C(=O)[C@@H](NC(=O)[C@H](C(C)C)N(C)CCCCCCN1C(=O)CC(SC[C@H](N)C(=O)O)C1=O)C(C)C (some centres unmarked) [Example 74] (X2-V[Dil][Dolaproine]W-NH2) was 0.36
